Target: ATP-binding cassette transporter A1 (ABCA1) (UniProt P41233 1-2261, limits assumed)
Sequence (P41233 whole entry): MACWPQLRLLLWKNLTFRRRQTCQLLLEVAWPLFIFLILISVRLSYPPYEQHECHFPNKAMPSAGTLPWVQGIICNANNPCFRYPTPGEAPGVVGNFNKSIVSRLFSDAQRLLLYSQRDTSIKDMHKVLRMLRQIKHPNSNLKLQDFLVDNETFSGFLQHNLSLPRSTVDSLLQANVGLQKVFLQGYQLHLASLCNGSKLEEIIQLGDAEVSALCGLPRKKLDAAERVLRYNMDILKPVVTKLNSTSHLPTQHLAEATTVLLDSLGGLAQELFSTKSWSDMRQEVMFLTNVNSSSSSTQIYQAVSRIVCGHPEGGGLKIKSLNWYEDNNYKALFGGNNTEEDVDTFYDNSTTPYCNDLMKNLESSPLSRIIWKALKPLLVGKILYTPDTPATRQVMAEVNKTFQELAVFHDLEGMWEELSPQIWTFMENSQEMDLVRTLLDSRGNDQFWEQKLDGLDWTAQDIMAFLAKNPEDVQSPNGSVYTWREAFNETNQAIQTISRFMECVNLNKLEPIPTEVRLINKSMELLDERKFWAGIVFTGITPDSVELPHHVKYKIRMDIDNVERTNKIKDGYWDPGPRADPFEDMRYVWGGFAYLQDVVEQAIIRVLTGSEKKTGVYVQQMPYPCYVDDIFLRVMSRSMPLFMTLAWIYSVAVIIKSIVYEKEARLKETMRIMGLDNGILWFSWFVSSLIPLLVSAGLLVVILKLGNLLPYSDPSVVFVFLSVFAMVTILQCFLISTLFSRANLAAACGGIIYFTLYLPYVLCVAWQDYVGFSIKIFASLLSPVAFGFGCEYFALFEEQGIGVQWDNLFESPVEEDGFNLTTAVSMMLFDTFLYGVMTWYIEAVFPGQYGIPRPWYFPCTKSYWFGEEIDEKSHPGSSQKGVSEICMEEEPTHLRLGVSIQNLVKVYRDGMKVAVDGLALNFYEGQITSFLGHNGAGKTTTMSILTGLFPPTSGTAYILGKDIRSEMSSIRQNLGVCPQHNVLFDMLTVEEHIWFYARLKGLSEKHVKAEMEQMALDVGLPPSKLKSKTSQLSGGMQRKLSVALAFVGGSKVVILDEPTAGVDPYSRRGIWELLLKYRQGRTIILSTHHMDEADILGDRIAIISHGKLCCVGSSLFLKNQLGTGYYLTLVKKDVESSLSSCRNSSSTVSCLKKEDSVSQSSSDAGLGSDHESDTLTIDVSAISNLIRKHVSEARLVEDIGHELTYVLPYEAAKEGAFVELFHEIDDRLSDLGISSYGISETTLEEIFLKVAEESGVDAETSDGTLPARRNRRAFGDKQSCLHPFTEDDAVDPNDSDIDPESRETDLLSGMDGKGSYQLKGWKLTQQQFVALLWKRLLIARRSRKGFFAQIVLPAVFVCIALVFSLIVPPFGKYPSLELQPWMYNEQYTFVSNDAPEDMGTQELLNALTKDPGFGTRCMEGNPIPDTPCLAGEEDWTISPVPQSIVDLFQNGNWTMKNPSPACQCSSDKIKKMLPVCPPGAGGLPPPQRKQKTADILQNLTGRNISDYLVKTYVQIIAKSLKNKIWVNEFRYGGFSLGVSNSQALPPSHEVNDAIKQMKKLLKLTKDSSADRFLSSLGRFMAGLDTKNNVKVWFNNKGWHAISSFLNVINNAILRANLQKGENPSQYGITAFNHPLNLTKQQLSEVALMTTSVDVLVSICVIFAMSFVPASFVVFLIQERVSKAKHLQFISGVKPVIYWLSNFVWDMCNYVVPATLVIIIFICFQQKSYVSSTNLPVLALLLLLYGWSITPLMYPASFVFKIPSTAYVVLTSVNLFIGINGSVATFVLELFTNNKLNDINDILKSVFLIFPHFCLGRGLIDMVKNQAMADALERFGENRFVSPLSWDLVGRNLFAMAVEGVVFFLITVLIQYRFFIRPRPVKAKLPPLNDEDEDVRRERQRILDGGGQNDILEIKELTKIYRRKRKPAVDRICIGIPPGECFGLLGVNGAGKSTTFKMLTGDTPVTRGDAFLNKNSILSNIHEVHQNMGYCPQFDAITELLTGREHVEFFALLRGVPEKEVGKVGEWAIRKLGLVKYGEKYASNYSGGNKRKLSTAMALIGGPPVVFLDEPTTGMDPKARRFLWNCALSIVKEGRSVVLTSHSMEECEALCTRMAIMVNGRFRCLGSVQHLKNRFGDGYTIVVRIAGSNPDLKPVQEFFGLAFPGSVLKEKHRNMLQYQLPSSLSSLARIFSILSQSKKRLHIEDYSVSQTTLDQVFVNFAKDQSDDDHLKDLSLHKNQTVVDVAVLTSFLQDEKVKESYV
Assay: cell-based or functional assay
Observable: % cholesterol efflux/4 hours at 0.1 µg/ml (%)

Example entries begin here.
Binder	Value
ELREKLEAWFELFAEFFARFKS [N356-4]	0.14
ELREKLEAWRELFEEFFARFKS [N356-2]	0

1. ELREKLEAWFELFAEFFARFK [N356-5]
2. ELREKLEAWFELFEEFFARFKS [N356-3]
3. ELRAKLEAWFEAFAEFFARF [N356-7]
4. ELREKLEAWFELFAEFFARF [N356-6]
Hello, I need these entries ordered by % cholesterol efflux/4 hours at 0.1 µg/ml, highest reading first. Thanks! List the labels, following the order given in the request.
3, 1, 4, 2
(3: 0.15%, 1: 0.02%, 4: 0.01%, 2: 0%)
